Molecular target: Serine/threonine-protein kinase PAK 2 (Homo sapiens) (UniProt Q13177);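 further: reported values are mean inhibition of PAK2, averaged over measurements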
Sequence (Q13177 whole entry): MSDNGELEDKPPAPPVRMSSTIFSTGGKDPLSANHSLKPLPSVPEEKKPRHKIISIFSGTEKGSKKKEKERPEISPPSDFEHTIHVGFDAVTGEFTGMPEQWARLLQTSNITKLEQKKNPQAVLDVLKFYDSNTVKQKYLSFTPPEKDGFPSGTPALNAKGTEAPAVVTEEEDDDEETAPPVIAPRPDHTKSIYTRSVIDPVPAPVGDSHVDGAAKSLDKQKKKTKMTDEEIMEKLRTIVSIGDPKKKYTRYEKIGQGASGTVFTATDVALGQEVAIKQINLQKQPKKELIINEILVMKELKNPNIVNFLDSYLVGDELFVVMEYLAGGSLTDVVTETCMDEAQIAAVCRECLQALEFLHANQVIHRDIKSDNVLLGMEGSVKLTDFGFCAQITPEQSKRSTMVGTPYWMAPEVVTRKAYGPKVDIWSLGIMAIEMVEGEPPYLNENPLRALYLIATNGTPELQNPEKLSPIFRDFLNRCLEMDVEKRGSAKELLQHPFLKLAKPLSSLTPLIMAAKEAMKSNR
Conditions: at 1 µM
result-type: inhibition (%)
Use % as the unit, but write only the number.

# count of solved cases: 5
Value lookup for inhibition; key = COc1cc(C)c(N(C)C(=O)CN(C)C)cc1Nc1nc(Nc2cccc(F)c2C(N)=O)c2cc[nH]c2n1
0.77

# lookup: inhibition of COc1cc2ncn(-c3cc(OCCc4ccccc4)c(C(N)=O)s3)c2cc1OC
-0.01

Reported inhibition for CCS(=O)(=O)c1ccc(OC)c(Nc2ncc(-c3cccc(-c4ccccc4F)c3)o2)c1 : what is it?
-0.6

Using the record for Fc1ccc(-c2c(-c3ccncc3)nc3n2CCS3)cc1 , report its inhibition.
0.49

Field request: inhibition | item: COc1ccc2cc(-c3c(-c4ccncc4)nc(-c4ccc([S+](C)[O-])cc4C)n3C)ccc2c1 (stereo not given)
-1.27

Further cases:
Which value of inhibition has been reported for CNC(=O)c1cncc(/C=C/c2c(C)cccc2C)c1 in the records?
-0.05

Look up inhibition for this compound: CN(c1ccc(NC(=O)Nc2c(Cl)cccc2Cl)cc1)c1ccnc(Nc2cccc(CS(C)(=O)=O)c2)n1
1.61

# query: inhibition of entry COc1cccc(/C=N/Nc2ncnc3c2cnn3-c2cccc(OC)c2)c1
1.26

# query: inhibition of entry N#Cc1ccc(Oc2nccc(-c3c(-c4ccc(F)cc4)ncn3C3CCNCC3)n2)cc1
2.68

Which value of inhibition has been reported for NCc1ccc(-n2c(-c3nonc3N)nc3cnccc32)cc1 in the records?
4.52
